- subject-of-test: T1, monovalent hVISTA-ECD (human VISTA extracellular domain with His tail) (human, UniProt Q9H7M9 33-193)
- T1 construct: analyte flowed over captured antibody; also called huVISTA-His
- method-notes: SPR, pH 7.4
- Method: Binding of several preparations of each of the '029 progeny clones and of the parent '029 antibodies, formatted as IgG1.3 antibodies, to human VISTA at pH 6.0 and 7.4 was measured by Surface plasmon resonance (SPR). SPR analysis was performed to measure koff and KD binding affinity measurements for VISTA Abs at acidic and neutral pHs using a Biacore® T100 instrument (GE Healthcare). […] The affinity constant, KD was calculated as the ratio of rate constants koff/kₒₙ for each VISTA antibody. […]
measurement-kind: koff (s⁻¹)
Write the answer as a number in s⁻¹, unit excluded.

Solved entries:
{"binder": "P1-065333 (41F11_VH_T28P/Y50W/S55E/L96E/Y100E VK_A64G) (antibody, human IgG1, kappa, V domains shown, IgG1.3; also called P1-065333-1; VISTA.4 pH-independent progeny) VH: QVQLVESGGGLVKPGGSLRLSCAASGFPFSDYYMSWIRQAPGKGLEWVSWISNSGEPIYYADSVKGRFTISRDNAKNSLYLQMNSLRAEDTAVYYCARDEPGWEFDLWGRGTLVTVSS VL: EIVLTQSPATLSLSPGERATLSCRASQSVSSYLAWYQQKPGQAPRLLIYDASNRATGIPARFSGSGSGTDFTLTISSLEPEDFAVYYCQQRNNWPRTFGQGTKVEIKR", "koff / s⁻¹": 0.00094}
{"binder": "VISTA.4 A64G (41F11 Vk:A64G) (antibody, human IgG1, kappa, V domains shown, IgG1.3; also called P1-061520; P1-061520-10) VH: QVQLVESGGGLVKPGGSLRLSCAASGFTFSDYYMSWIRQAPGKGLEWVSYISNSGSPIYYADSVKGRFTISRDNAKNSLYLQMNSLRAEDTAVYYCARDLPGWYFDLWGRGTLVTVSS VL: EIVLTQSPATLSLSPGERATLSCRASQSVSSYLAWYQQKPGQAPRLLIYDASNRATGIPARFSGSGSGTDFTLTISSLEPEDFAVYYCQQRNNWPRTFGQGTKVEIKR", "koff / s⁻¹": 0.00093}
{"binder": "P1-065326 (41F11_VH_D31E/Y50W/S55E/L96E/Y100E VK_A64G) (antibody, V domains shown, Kabat positions; also called P1-065326-1) VH: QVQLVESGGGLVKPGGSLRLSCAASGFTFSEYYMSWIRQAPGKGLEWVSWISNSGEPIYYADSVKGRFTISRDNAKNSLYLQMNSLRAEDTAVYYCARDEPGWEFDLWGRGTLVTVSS VL: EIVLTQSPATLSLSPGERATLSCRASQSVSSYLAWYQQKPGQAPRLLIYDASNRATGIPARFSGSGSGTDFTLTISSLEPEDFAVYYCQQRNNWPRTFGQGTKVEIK", "koff / s⁻¹": 0.00032}

Item P1-064392 (41F11_HC_Mutant: D31E/Y50W/S55E/Y100E 41F11_LC_Mutant: V29D/A64G/Q89E/R91T) (antibody, V domains shown, Kabat positions; also called P1-064392-1) VH: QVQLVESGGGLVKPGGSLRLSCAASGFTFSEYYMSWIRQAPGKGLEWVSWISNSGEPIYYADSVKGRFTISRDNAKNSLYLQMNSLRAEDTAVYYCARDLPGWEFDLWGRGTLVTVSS VL: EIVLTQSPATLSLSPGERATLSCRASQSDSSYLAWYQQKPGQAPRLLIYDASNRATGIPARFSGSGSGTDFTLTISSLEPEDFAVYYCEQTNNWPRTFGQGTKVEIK has what recorded koff?
0.0078

Item P1-064510 (41F11_Vk_A25E/V29D/A64G/R91T) (antibody, V domains shown, also called P1-064510-1) VH: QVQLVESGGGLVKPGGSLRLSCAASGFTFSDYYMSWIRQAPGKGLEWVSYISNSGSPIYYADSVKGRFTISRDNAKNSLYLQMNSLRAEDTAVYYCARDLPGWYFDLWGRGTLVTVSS VL: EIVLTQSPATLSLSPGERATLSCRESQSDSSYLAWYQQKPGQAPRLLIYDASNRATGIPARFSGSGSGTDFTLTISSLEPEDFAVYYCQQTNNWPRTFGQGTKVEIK has what recorded koff?
0.00039

Item P1-064391 (41F11_HC_Mutant: D31E/Y50W/S55E/Y100E 41F11_LC_Mutant: V29D/A64G/R91T) (antibody, V domains shown, Kabat positions; also called P1-064391-1) VH: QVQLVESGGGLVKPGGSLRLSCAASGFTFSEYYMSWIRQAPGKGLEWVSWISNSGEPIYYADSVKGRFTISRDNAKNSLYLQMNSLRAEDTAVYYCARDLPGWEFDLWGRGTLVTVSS VL: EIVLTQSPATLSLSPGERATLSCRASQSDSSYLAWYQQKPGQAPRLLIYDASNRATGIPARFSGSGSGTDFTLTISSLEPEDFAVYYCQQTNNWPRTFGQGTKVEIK has what recorded koff?
0.019
